Please provide measured inhibition for the entries that follow.
test: HepG2 cytotoxicity, primary screen, cytotoxicity control for P. falciparum antimalarial project, cell-based, ATP luminescence (AID 2303);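 further: 0% = DMSO wells and 100% = digitonin-killed cells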
test.conditions: HepG2 viability, 24-48 h, at 10 µM, active compounds read high
Use % as the unit, but write only the number.

Ask: Consider the compound CC(C)(CNC(=O)C1CCN(CCOc2ccc(F)c(F)c2)CC1)c1nc(-c2ccc(Cl)c(O)c2)c(-c2ccncc2)[nH]1 . State its measured inhibition.
Result: 41

Ask: Consider the compound CC(C)c1ccc(O)cc1Nc1ccnc2ccc(C(F)(F)F)cc12 . State its measured inhibition.
Result: 6

Ask: Consider the compound CN1CCc2cc(NS(=O)(=O)c3ccc(-c4ccc(Cl)cc4)cc3)c(OCCCN3CCCCC3)cc2CC1 . State its measured inhibition.
Result: 91

Ask: Consider the compound CC(C)OCCCNC(=O)c1nc(-c2cccc(C(F)(F)F)c2)sc1C(C)C . State its measured inhibition.
Result: -7

Ask: Consider the compound O=C(C1CCN(C(c2ccccc2)c2ccc(Cl)c(Cl)c2)CC1)N1CC=CC1 (stereo not given) . State its measured inhibition.
Result: 1

Ask: Consider the compound Cc1ccccc1C1CCN(C2CCC(NC(=O)c3csc(-c4cccc(Cl)c4)n3)CC2)CC1 (stereo not given) . State its measured inhibition.
Result: 33

Ask: Consider the compound CCOC(=O)C(NC(=O)Cc1ccccc1)C(C)C (stereo not given) . State its measured inhibition.
Result: 39

Ask: Consider the compound CN(C)CC1CCCN1Cc1ccccc1-c1cnn(C)c(=O)c1Oc1ccccc1F (stereo not given) . State its measured inhibition.
Result: 18

Ask: Consider the compound CC(CNc1ccnc(Nc2ccc3[nH]c(=O)[nH]c3c2)n1)c1ccccc1 (stereo not given) . State its measured inhibition.
Result: 50

Ask: Consider the compound CC(C)CCN1CCCN(Cc2ccc(C(=O)Nc3ccc(C(C)(C)C)cc3)cc2)CC1 . State its measured inhibition.
Result: 49

Ask: Consider the compound NC(=O)c1ccsc1NC(=O)CNC(c1ccccc1)c1ccc(Cl)cc1 (stereo not given) . State its measured inhibition.
Result: 25

Ask: Consider the compound Cc1c(F)cc(C(=O)NC2CC2)cc1-c1ccc2c(cnn2S(=O)(=O)c2cccs2)c1 . State its measured inhibition.
Result: 32

Ask: Consider the compound O=C(CCCCCNC(=O)c1ccc(O)c(-c2ccc(Cl)c(Cl)c2)c1)NCCc1ccc(Cl)c(Cl)c1 . State its measured inhibition.
Result: 57

Ask: Consider the compound Cc1cc(F)ccc1-c1nc(N(C)CCN(C)C(=O)N(C)c2ccccc2)nc2c1ccc(=O)n2-c1c(F)cccc1F . State its measured inhibition.
Result: -1

Ask: Consider the compound O=C(Nc1ccc(Br)cc1)N1CCC(n2c(-c3ccccc3)nc3cccnc32)CC1 . State its measured inhibition.
Result: 36

Ask: Consider the compound COc1ccc2nc(C)cc(N/N=C/C=C/c3ccccc3)c2c1 . State its measured inhibition.
Result: 27

Ask: Consider the compound CS(=O)(=O)c1cccc(-c2cnc3[nH]cc(-c4cccc(CCN)c4)c3c2)c1 . State its measured inhibition.
Result: -12

Ask: Consider the compound CCCCN(CCCC)C(=Nc1cccc(Cl)c1Cl)Nc1ccc(C#N)cc1O . State its measured inhibition.
Result: 4

Ask: Consider the compound O=C(NCCCN1CCCCC1)c1ccc(Nc2nccc(Nc3ccc(Oc4ccccc4)cc3)n2)cc1 . State its measured inhibition.
Result: 30

Ask: Consider the compound CN1CCN(c2ccc(Nc3nccc(-c4cnn5ncccc45)n3)cc2Cl)CC1 . State its measured inhibition.
Result: 65
